# measuredOn: Cad1 (UniProt P24813)
# Sequence: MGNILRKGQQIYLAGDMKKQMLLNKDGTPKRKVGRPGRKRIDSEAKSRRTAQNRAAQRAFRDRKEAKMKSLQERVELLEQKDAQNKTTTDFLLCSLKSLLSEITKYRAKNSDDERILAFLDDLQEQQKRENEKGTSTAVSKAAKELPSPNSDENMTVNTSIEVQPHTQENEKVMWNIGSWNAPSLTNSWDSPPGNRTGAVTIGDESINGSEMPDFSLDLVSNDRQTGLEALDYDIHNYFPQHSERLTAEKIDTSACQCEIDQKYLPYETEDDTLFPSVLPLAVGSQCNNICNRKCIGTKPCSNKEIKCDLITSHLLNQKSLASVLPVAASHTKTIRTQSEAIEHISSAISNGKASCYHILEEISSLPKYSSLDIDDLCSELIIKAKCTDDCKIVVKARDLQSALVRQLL
# testSummary: PBM E-score (8-mer binding enrichment) (E-score (-0.5 to 0.5)); higher = stronger / more preferred TF binding
# conditionSummary: protein concentration: 100 nM; construct: GST-full length
The full ranking holds about 33,000 sequences; the median of “E-score (-0.5 to 0.5)” is about -0.0014, and the highest 2% start at about 0.25. For the sample, the highest values were picked, then their nearest neighbours and some sequences at random.
testReadout: PBM E-score
Keep it simple and answer with nothing but the number.

The measured PBM E-score associated with GGCTAGCA reads -0.135

The measured PBM E-score associated with ATGAATAG reads 0.0469

The measured PBM E-score associated with AACCTGCG reads -0.142

The measured PBM E-score associated with AACCTCAC reads -0.112

The measured PBM E-score associated with CATGCATG reads 0.252

The measured PBM E-score associated with AGTCGGCG reads 0.0599

The measured PBM E-score associated with ACTTATAA reads 0.279

The measured PBM E-score associated with TTAGTAAA reads 0.339

The measured PBM E-score associated with CAGTAGTC reads -0.207

The measured PBM E-score associated with GGCAGTCA reads -0.00415

The measured PBM E-score associated with GGTTGAGA reads -0.224

The measured PBM E-score associated with GATTTCAA reads 0.013

The measured PBM E-score associated with GTATTCAA reads 0.14

The measured PBM E-score associated with AAATGATT reads 0.261

The measured PBM E-score associated with CAATGATA reads 0.0335

The measured PBM E-score associated with AAATTAGA reads 0.191

The measured PBM E-score associated with GAATTAAA reads -0.0332

The measured PBM E-score associated with ATTACAGG reads 0.228

The measured PBM E-score associated with GCGATTAA reads 0.123

The measured PBM E-score associated with CGAATAGC reads 0.0486

The measured PBM E-score associated with ATTACATC reads 0.209

The measured PBM E-score associated with CAACCGTG reads 0.00095

The measured PBM E-score associated with AATGCATG reads 0.254

The measured PBM E-score associated with ACATGTAT reads 0.204

The measured PBM E-score associated with ATGATTGA reads 0.0737

The measured PBM E-score associated with AAATTAAC reads 0.0173

The measured PBM E-score associated with AGATCGAC reads 0.0578

The measured PBM E-score associated with ATTACATG reads 0.301

The measured PBM E-score associated with TAGCGACA reads 0.0174

The measured PBM E-score associated with CGATCGAC reads 0.272

The measured PBM E-score associated with CCGGTTAG reads 0.0658

The measured PBM E-score associated with AGTACACA reads 0.0961

The measured PBM E-score associated with AAATTACC reads 0.081

The measured PBM E-score associated with CGCTAGCA reads -0.0293

The measured PBM E-score associated with CATGCATC reads 0.148

The measured PBM E-score associated with TACAGTAA reads 0.0528

The measured PBM E-score associated with GCTTATAA reads 0.235

The measured PBM E-score associated with ATGATTAA reads 0.32

The measured PBM E-score associated with ACGCACTG reads -0.0467

The measured PBM E-score associated with AAATTAGT reads 0.273

The measured PBM E-score associated with ACAGCTGT reads 0.261

The measured PBM E-score associated with ATGCTCCG reads -0.114

The measured PBM E-score associated with TAATGATA reads 0.251

The measured PBM E-score associated with CCGCCGTC reads 0.117

The measured PBM E-score associated with AATTATGT reads 0.167

The measured PBM E-score associated with CATTATAA reads 0.104

The measured PBM E-score associated with AGTTTGGC reads 0.109

The measured PBM E-score associated with ATATTCAA reads 0.144

The measured PBM E-score associated with CTAATTAG reads 0.41

The measured PBM E-score associated with AAATTAGG reads 0.13

The measured PBM E-score associated with AAATTACG reads -0.00187

The measured PBM E-score associated with AATTATAG reads 0.0146

The measured PBM E-score associated with AACGAGCA reads -0.0102

The measured PBM E-score associated with GTAATTAC reads 0.33

The measured PBM E-score associated with CAATCCTA reads -0.015

The measured PBM E-score associated with ACCTTCAT reads -0.0561

The measured PBM E-score associated with GTGATTAA reads 0.228

The measured PBM E-score associated with CTGATTTA reads 0.0612

The measured PBM E-score associated with ATAATTCG reads 0.168

The measured PBM E-score associated with TGCTAGCA reads 0.263

The measured PBM E-score associated with ATTAATTA reads 0.263

The measured PBM E-score associated with CCCTATAG reads -0.143

The measured PBM E-score associated with ATTACACA reads 0.284

The measured PBM E-score associated with ATGATTAG reads 0.094

The measured PBM E-score associated with ACAGCTGA reads -0.0375

The measured PBM E-score associated with AATGCATA reads 0.0741

The measured PBM E-score associated with ATTAATGA reads 0.306

The measured PBM E-score associated with TATTTCAA reads 0.309

The measured PBM E-score associated with ATTAATAG reads 0.275

The measured PBM E-score associated with GTATTAAC reads -0.0392

The measured PBM E-score associated with CCAGTAAA reads -0.0575

The measured PBM E-score associated with ACACAATC reads 0.0563

The measured PBM E-score associated with ATTACTCC reads 0.0689

The measured PBM E-score associated with GCCCATAC reads -0.1
